Data origin: patent US9234000B2

target: Factor Xa (Homo sapiens (Human), UniProt P00742)
Sequence (P00742 235-488): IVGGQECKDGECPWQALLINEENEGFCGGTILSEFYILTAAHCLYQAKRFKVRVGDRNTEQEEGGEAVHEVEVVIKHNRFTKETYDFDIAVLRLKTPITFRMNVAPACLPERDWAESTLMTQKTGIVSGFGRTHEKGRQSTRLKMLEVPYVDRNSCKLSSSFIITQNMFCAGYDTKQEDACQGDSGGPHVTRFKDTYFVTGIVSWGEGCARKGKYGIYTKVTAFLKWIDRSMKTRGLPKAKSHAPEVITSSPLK
Sequence (P00742 41-179 partner): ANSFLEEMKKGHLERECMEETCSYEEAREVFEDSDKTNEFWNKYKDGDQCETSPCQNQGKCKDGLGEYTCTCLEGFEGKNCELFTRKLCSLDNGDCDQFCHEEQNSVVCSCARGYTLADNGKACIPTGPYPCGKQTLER
pIC50: −log10 of the molar value.
observable: pIC50

pIC50 reported for this compound CCOc1ccc(C[C@@H](NC(=O)c2ccccc2)C(=O)N[C@@H](Cc2ccccc2)C(=O)NCc2ccc(CN)cc2)cc1 [Example 3] : < 5.00

* * *

experiment: Determination of thermodynamic solubility in phosphate buffer; type: physicochemical; settings: pH 7.4, aqueous buffer, thermodynamic from solid, ammonium phosphate buffer pH7.4, 290 mOsm, 37° C., nominal 1 mg/mL, read-out: Solubility in PO4 buffer
observable: solubility at 1 h
Please answer using the number first and the unit second.

Examples with answers:
[[record]]
molecule = "CCOc1ccc(C[C@@H](NC(=O)c2ccccc2)C(=O)N[C@@H](Cc2ccccc2)C(=O)NCc2ccc(CN)c(F)c2)cc1"
observable = "solubility at 1 h"
result = "3.14 µg/mL"

[[record]]
molecule = "CCOc1ccc(C[C@@H](NC(=O)c2ccccc2)C(=O)N[C@@H](Cc2ccc(F)cc2)C(=O)NCc2ccc(CN)cc2)cc1"
observable = "solubility at 1 h"
result = "2.86 µg/mL"

[[record]]
molecule = "CCOc1ccc(C[C@@H](NC(=O)c2ccccc2)C(=O)N[C@@H](Cc2csc3ccccc23)C(=O)NCc2ccc(CN)cc2)cc1"
observable = "solubility at 1 h"
result = "0.19 µg/mL"

[[record]]
molecule = "CCOc1ccc(C[C@@H](NC(=O)c2ccccc2)C(=O)N[C@@H](Cc2cccnc2)C(=O)NCc2ccc(CN)cc2)cc1"
observable = "solubility at 1 h"
result = "68.9 µg/mL"

[[record]]
molecule = "CCOc1ccc(C[C@@H](NC(=O)c2sccc2C)C(=O)N[C@@H](Cc2ccccc2)C(=O)NCc2ccc(CN)cc2)cc1"
observable = "solubility at 1 h"
result = "1.61 µg/mL"


Please find the next compound below.
solubility at 1 h reported for this compound CCCOc1ccc(C[C@@H](NC(=O)c2ccccc2)C(=O)N[C@@H](Cc2ccccc2)C(=O)NCc2ccc(CN)cc2)cc1 : 0.56 µg/mL

* * *

# IC50 values compiled below
target: Human KLK1 (Homo sapiens (Human)); experiment: Determination of the IC50 for KLK1; format: biochemical; settings: Human KLK1, 37° C., substrate H-DVal-Leu-Arg-AFC; Table 13
Return type: number; implicit unit µM.

[[record]]
molecule = "CCOc1ccc(C[C@@H](NC(=O)c2ccc(Cl)nc2Cl)C(=O)N[C@@H](Cc2ccccc2)C(=O)NCc2ccc(CN)cc2)cc1"
result = 8.4

[[record]]
molecule = "CCOc1ccc(C[C@@H](NC(=O)c2ccsc2)C(=O)N[C@@H](Cc2ccccc2)C(=O)NCc2ccc(CN)cc2)cc1"
result = 9.1


Item: CCOc1ccc(C[C@@H](NC(=O)c2cccnc2)C(=O)N[C@@H](Cc2ccccc2)C(=O)NCc2ccc(CN)cc2)cc1 | System: Human KLK1 (Homo sapiens (Human)) | IC50: 7.5

Item: CCOc1ccc(C[C@@H](NC(=O)c2[nH]ccc2C)C(=O)N[C@@H](Cc2csc3ccccc23)C(=O)NCc2ccc(CN)cc2)cc1 | System: Human KLK1 (Homo sapiens (Human)) | IC50: 3.8

* * *

# pIC50 values compiled below
target: Human KLK1 (Homo sapiens (Human), UniProt P06870); assay: Determination of the IC50 for KLK1; assay type: biochemical; settings: Human KLK1, 37° C., substrate H-DVal-Leu-Arg-AFC; Table 13
Sequence (P06870 25-262): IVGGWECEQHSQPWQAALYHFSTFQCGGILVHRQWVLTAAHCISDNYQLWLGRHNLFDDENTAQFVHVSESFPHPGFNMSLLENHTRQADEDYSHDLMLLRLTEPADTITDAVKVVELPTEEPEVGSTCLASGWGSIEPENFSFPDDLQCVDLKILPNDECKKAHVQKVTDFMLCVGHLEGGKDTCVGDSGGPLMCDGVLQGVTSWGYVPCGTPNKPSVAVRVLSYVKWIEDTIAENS
In plain terms, pIC50 is the concentration in mol/L turned into minus its base-10 logarithm.

Examples with answers:
[[record]]
molecule = "CCOc1ccc(C[C@@H](NC(=O)Cc2ccccc2)C(=O)N[C@@H](Cc2ccccc2)C(=O)NCc2ccc(CN)cc2)cc1"
observable = "pIC50"
result = 5.54

[[record]]
molecule = "CCOc1ccc(C[C@@H](NC(=O)c2ccncc2)C(=O)N[C@@H](Cc2ccc(Cl)c(Cl)c2)C(=O)NCc2ccc(CN)cc2)cc1"
observable = "pIC50"
result = 5.03

[[record]]
molecule = "CCOc1ccc(C[C@@H](NC(=O)c2cnc(Cl)c(Cl)c2)C(=O)N[C@@H](Cc2ccccc2)C(=O)NCc2ccc(CN)cc2)cc1"
observable = "pIC50"
result = 5.12

[[record]]
molecule = "CCOc1ccc(C[C@@H](NC(=O)c2sccc2OC)C(=O)N[C@@H](Cc2ccccc2)C(=O)NCc2ccc(CN)cc2)cc1"
observable = "pIC50"
result = 5.32


pIC50 reported for this compound CCOc1ccc(C[C@@H](NC(=O)c2ccno2)C(=O)N[C@@H](Cc2ccccc2)C(=O)NCc2ccc(CN)cc2)cc1 : 5.07

pIC50 reported for this compound CCOc1ccc(C[C@@H](NC(=O)CNC(=O)c2ccccc2)C(=O)N[C@@H](Cc2ccccc2)C(=O)NCc2ccc(CN)cc2)cc1 : 5.29

pIC50 reported for this compound CCOc1ccc(C[C@@H](NS(=O)(=O)c2ccc(Cl)cc2)C(=O)N[C@@H](Cc2ccccc2)C(=O)NCc2ccc(CN)cc2)cc1 : 5.92
